# Tested on: MCF7 breast
# Run Description: NCI-60 one-dose screen, 48 h
# Run Conditions: 10 µM unless noted
About 83,000 compounds went through this panel and 20% of them were active in at least one assay; those are over-represented in the sample as a whole. Activity calls are given as the source filed them. The calls were made as follows: active = growth percent below 10; inactive = the rest.
Your answer must be one of the following: Y = active, N = inactive

Query: Any idea what this test logged for "NC(=O)c1c(NC(=O)c2ccc3c(c2)OCO3)sc2c1CCC(=O)C2" ?
Result: Y

Query: Any idea what this test logged for "CCCCCCCN(CCCCCCC)C(=N)c1ccc(OC)c2ccccc12" ?
Result: Y

Query: Any idea what this test logged for "Cc1cc(NC(=O)COC(=O)c2sc3cc(F)ccc3c2Cl)no1" ?
Result: N

Query: Any idea what this test logged for COC(=O)C(CC(=O)c1ccc(-c2ccccc2)cc1)c1ccccc1 (stereo not given) ?
Result: N

Query: Any idea what this test logged for "COc1ccc(C(=O)N2CCN(C(=O)c3cc(OC)c(OC)c(OC)c3)CC2)cc1OCCCCOc1cc2c(cc1OC)C(=O)N1CCC[C@H]1C=N2" ?
Result: N

====

# Tested on: RPMI-8226 leukemia
# Run Description: NCI-60 one-dose screen, 48 h (100 = growth as untreated, 0 = no growth, -100 = all killed)
# Run Conditions: 10 µM unless noted
This is part of a sample that, as a whole, favours compounds with a hit. Of some 83,000 tested, about 20% had one in any assay.
Please go through the items and note down their growth.
Lab book: enter the figure in %, no units written.

Short answer for "COc1ccc(/C=C/C(=O)c2cccc(B(O)O)c2)cc1O" : growth was 5.96

Short answer for "O=C(CN1CCOCC1)Nc1ccc(-c2nc3ccccc3s2)cc1" : growth was 94

Short answer for Cc1cnc(NC(=O)C(Cc2ccccc2)NC(=O)c2ccccc2)s1 (stereo unspecified) : growth was -15.7

Short answer for "Cc1nc(Nc2cccnc2)sc1C(=O)/C=C/c1ccc(Cl)cc1" : growth was -4.94

Short answer for "CCN1C(=O)N[C@H]2[C@@H]3NC(=O)c4ccc(Cl)n4[C@@H]3C[C@]21O" : growth was -21.2

Short answer for "CCCCCCCN(CCCCCCC)C(=N)c1ccc(OC)c2ccccc12" : growth was -48.8

Short answer for "Cc1sc(N=Nc2ccc(N(C)C)cc2)[n+]([O-])c1C" : growth was 106

Short answer for "CCN(CC)c1cc(/C=C/c2ccc(OC)c(OC)c2)nc2cc(F)c(F)cc12" : growth was 99.1

Short answer for CC(=O)Nc1ccc(S(=O)(=O)N2C(=O)CCC2C(=O)Nc2ccc(Br)cc2)cc1 (stereo unspecified) : growth was 10.1

Short answer for "O=C(Nc1ccc(Br)c(Cl)c1)c1cc(F)ccc1O" : growth was -16.1

Short answer for "COc1cccc(-c2nc3sccn3c2-c2ccnc(NCCNS(=O)(=O)c3ccccc3)n2)c1" : growth was 49.5

====

# Test system: MALME-3M melanoma
# Run Description: NCI-60 one-dose screen, 48 h (100 = growth as untreated, 0 = no growth, -100 = all killed)
# Run Conditions: 10 µM unless noted
This is part of a sample that, as a whole, favours compounds with a hit. Of some 83,000 tested, about 20% had one in any assay.
Threshold 80%: growth strictly smaller gives Criterion met, otherwise Criterion not met.

Query: Is the reported growth for "COc1ccc(S(=O)(=O)Nc2cc(/C=C\c3cc(OC)c(OC)c(OC)c3)cc(OC)c2OC)cc1OC" strictly below 80%?
Result: Criterion not met

Query: Is the reported growth for "COc1cccc(/C=C2\SC(N3CCN(c4ccccn4)CC3)=NC2=O)c1" strictly below 80%?
Result: Criterion not met

Query: Is the reported growth for "O=C(O)c1cccc([N+](=O)[O-])c1/C=C/c1ccccc1" strictly below 80%?
Result: Criterion not met

Query: Is the reported growth for "COc1ccc(Cn2c(SC)nc(=O)n(Cc3ccc(Cl)cc3)c2=O)cc1" strictly below 80%?
Result: Criterion not met

Query: Is the reported growth for Cc1c(C2=NNC(c3ccc4c(c3)OCO4)C2)[n+]([O-])c2ccccc2[n+]1[O-] (stereo not given) strictly below 80%?
Result: Criterion not met

Query: Is the reported growth for "O=S(=O)(O)CCl" strictly below 80%?
Result: Criterion not met

Query: Is the reported growth for "O=c1[nH]c2ccccc2cc1-c1nnc(Cc2ccccc2)o1" strictly below 80%?
Result: Criterion met

Query: Is the reported growth for "CCN(Cc1ccc(CN(CC)C(=O)C(Cl)(Cl)Cl)cc1)C(=O)C(Cl)(Cl)Cl" strictly below 80%?
Result: Criterion met

Query: Is the reported growth for CC(Br)C(Br)c1cc2c(cc1Br)OCO2 (stereo not given) strictly below 80%?
Result: Criterion not met
